As shown below, each of these molecules has a reported Plant response rating, Wheat value.
# Test system: wheat (Triticum aestivum)
# test.method.notes: Test B pre-/postemergence plant response
# Format: in vivo
# experimental.setup: Postemergence, 16 g ai/ha; scale 0 to 100
Write the number on its own, no unit after it.

Reference set, count: 2
>>> endpoint_value("Cc1cc(-c2ccc(Cl)cc2)nn1-c1c(OC(=O)c2ccccc2)cnn(C)c1=O")
50
>>> endpoint_value("CCc1cc(-c2ccc(F)cc2)nn1-c1c(O)cnn(C)c1=O")
0

I am curious: what Plant response rating, Wheat value has been reported for CCc1cc(-c2ccc(Cl)c(Cl)c2)nn1-c1c(O)cnn(C)c1=O ? 20

Please do the same for COC(=O)Oc1cnn(C)c(=O)c1-n1nc(-c2ccc(Cl)cc2)cc1C as well. 70
